# test-protocol: yeast display, Sf9 membrane polyspecificity reagent, FACS + sequencing; frameworks hold sequencing errors
experimental-endpoint: polyreactivity (PSR sort gate)

>>> observed_result("QVQLVESGGGLVQAGGSLRLSCAASGRTFVYYAMGWYRQAPGKERELVAAITSGGSTNYADSVKGRFTISRDNAKNTVYLQMNSLKPEDTAVYYCNAYGVSWFYYTWKYDYWGQGTQVTVSS")
"low polyreactivity"
>>> observed_result("QVQLVETGGGLVQAGGILRLSCAASGSTFYRNAMGWYRQAPGKERELVAAINSTDSTNYADSVKGRFTISRDNAKNTVYLQMNSLKPEDTAVYFCAAVGVNLATAEYDYWGQGTQVTVSS")
"low polyreactivity"

###

# test-protocol: yeast display, Sf9 membrane polyspecificity reagent, FACS + sequencing; frameworks hold sequencing errors
experimental-endpoint: polyreactivity (PSR sort gate)

>>> observed_result("QVQLVESGGGLVQEGGSLRLSCAASGSTFRRNAMGWYRQAPGKERELVAAISTSGGTTYYADSVKGRFTISRDYAKNTVYLQMNSLKPEDTAVYYCAAGGKKRDDYWGQGTQVTVSS")
"high polyreactivity"
>>> observed_result("QVQLVESGGGLVQAGGSLRLSCAASGFIFYRYAMGWYRQAPGKERELVATIRYSGGSTYYADSVKGRFTISRDNAKNTVYLQMNSLKPEDTAVYYCNARRWYLPRRLYDYWGQGTQVTVSS")
"high polyreactivity"
>>> observed_result("QVQLVESGGGLVQAGGSLRLSCAASGGTFYYNAMGWYRQAPGKERELVAAITSGDRTYYADSVKGRFTISRDIAKNTVYLQMNSLKPEDTAVSYCARAGKTRAGYDYWGQGTQVTVSS")
"high polyreactivity"
>>> observed_result("QVQLVESRGALVQAGGSLRLSCAASGYIFYSNAMRWYRQEPGKERELVAAITSGRGSTYYADSVKGRFTISRDNAKNTVYLQMNSLIPEDTAVYYCDVSIGRYPYRYGYWGQGTQVTVSS")
"high polyreactivity"

###

# test-protocol: yeast display, Sf9 membrane polyspecificity reagent, FACS + sequencing; frameworks hold sequencing errors
experimental-endpoint: polyreactivity (PSR sort gate)

Consider the following illustrative entries.
>>> observed_result("QVQLVESGGGLVQAGGSLRLSCAASGITFVYYAMGWYRQAPGKERELVAAISKNGGSTYYADSVKGRFTISRDNAKNTVYLQMNSLKPEDTAVYYCAAEEGYRWVRYNYWGQGTQVTVSS")
"high polyreactivity"
>>> observed_result("QVQLEESGGGLVQAGGSLRLSCAASGSTFYYYALGWYRQAPGKERELVATINKIVGITYYADSVKGRFTISRDNAKNTVYLQRNSLKPEDTAVYYCAVQDTSYDVQYSYGYWGQGTQVNVSS")
"low polyreactivity"
>>> observed_result("QVQLVESGGGLVQAGGSLRLSCAASGLILSDYAMGWYRQAPGKERELVATITSVGTTKYADSVKGRVTISRDNAKKTVYVQLHSLKPEDTAVYYCAAEFIRGYGESYDYWGQGTQVTVSS")
"low polyreactivity"
>>> observed_result("QVQLVESGGGLVQAGGSLRLSSSASGRIFVYYAMGWYRQAPGKERELVAAITYSVDSTYYADSVKARFTISRDNAKNTVYLQMNSLKPEDTAVYYCATDVDWAYGYQYEYWGQGTQVTVSS")
"low polyreactivity"

Lab note: next sequence to report on.
Request: Name the recorded polyreactivity (PSR sort gate) for QVQLVESGGGLVQAGCSLRLSSAASGFIYYRYAMGWYRQAHGKERELVAAISRSGGSTYYADSVKGRFTISRDNAKNTVYVQMNRLKPEDTAVYYCAADSGSLAPGNDYWGQGTQVTVSS .
Response: high polyreactivity

###

# test-protocol: yeast display, Sf9 membrane polyspecificity reagent, FACS + sequencing; frameworks hold sequencing errors
experimental-endpoint: polyreactivity (PSR sort gate)

>>> observed_result("QVQLVESGGGLVQAGGSLRLSCAASGNIFGWYAMGWYRKAPGKERELVAAISSGGRTNYADSVKGRFTISRDYAKNTVYLQMNSLKPEDTAVYYCNKVAGVTGRYYYWGQGTQVTVSS")
"low polyreactivity"
>>> observed_result("QVQLKESVGGLVQAGGILRLSCAASGNIFPTDRMAWYRQAPGTELEFVATISHGGSTNYADSVKGRFTISRDNSKNTLYLQMNSLKPEDTAVYYWWGWSLGRWRHYYWGQGTQVTVSS")
"low polyreactivity"
>>> observed_result("QVQIVESGGGLVQAGGSLRLRCAASGRTFRDNAMGWSRQAPGKERELVAAIDIDSSTYYADSVKGRFTISRDNAKNTVYLQMISLKPEDTAVYYCAAESYHDGIGFPDYEYWGQGTQVTVSS")
"low polyreactivity"
>>> observed_result("QVQLVESGGGLVQAGGSLRLSCAASGSIFRNYAMGWYRQAPGKERELVAVITQRGGRTYYADSVKGRFTISRDNAKNTVYLQMNSLKPEDTAVYYCAASYRGVPEYDSWGQGTQVTVSS")
"low polyreactivity"
>>> observed_result("QVQLVESGGGLVQAGGSLRLSCAASGNTFTFYAMGWYRQAPGTERELVASITGRGGSTYYADSVKGRFTISRDNAKNTVYLQMNSLKPEDTAVYYCNADYNSFRYRPPTTRDYWGQGTQVTVSS")
"low polyreactivity"

Consider the following items and state reported polyreactivity (PSR sort gate) for each.
1. QVQLVESGGGLVQAGGSLRLSCAASGSIFYENMGWYRQSPRKERELVASISWSGTSTYADSVKGRFTISRDNAKNTVYLQMNSLKPEDSAVYYCAAGKNGYTYSRSYSYGYWGQGTQVTVSS
2. QVQLVESGGGLVQAGGSLRLSCAASGSTFNYYAMGWYRQAPGKERELVAAISSSGGTTYYADSVKGRFTISRDNAKNTVYLQMKSLKPEDTAVYYCATDTPPYWGGSHFDYWGQGTQVTVSS

Response:
1. high polyreactivity
2. low polyreactivity

###

# test-protocol: yeast display, Sf9 membrane polyspecificity reagent, FACS + sequencing; frameworks hold sequencing errors
experimental-endpoint: polyreactivity (PSR sort gate)

The cases that follow already have their polyreactivity (PSR sort gate) on record.
>>> observed_result("QVHLVETGGGLVQAGGSLRLSCAASGSIFVSNAKGWYRQAPGKERELVAAISQSGGSTYYADSVKGRFTISRDYAKNTVYLQMNSLKPEDTAVYYCATPIRSGFRIYDYWGQGTQVTVSS")
"low polyreactivity"
>>> observed_result("QVQLVESGGGLVQAGGSLRLSCAASGITFLVYAMGWYRQAPGKERELVAAISADAGGTYYADSVKGRFTISRDNAKNTVYLQMNSLKPEDTAVYYCNVDGRSDGDDYWGQGTQVTVSS")
"low polyreactivity"
>>> observed_result("QVQLVESGGGLVQAGGSLRLSCAASGSTFYLYAMGWYRQAPGKEREFVARISASGGNTYYADSVKGRFTISRDNAKNTVYLQMNSLKPEDTAVYSCAARVRGRNASDYDYYYWGQGTQVTVSS")
"high polyreactivity"
>>> observed_result("QVQLVESGGGLVQAGGSLRLSCAASGSTFTTYAMGWYRQAPGKEREFVASIRWRGGNTYYADSVKGRFTISRDNAKNTVYLQMNSLKPEDTAVYYCARRVDYISSKYGYWGQGTQVTVSS")
"high polyreactivity"

Provide polyreactivity (PSR sort gate) values for the following items, in order.
1. QVQLVESGGGLVQAGGSLRLSCAASGRTFGINAMGWYRQAPGKERELVAVISFGDGGTYYADSVKGRFTISRDNAKNTVYLQMNSLKPEDSAVYYCAAEVVAQMNYWGQGTQVTVSS
2. QVQLVESGGGLVQAGGSLRLSCAASGRIFDLYTMGWYRQAPGKERELVAAIRWSDGSTYYADSVKGRFTISRDNAKNTVYLQMNSLKPEDTAVYYCATDTAILINFVLYDYWGQGTQVTVSL
3. QFQLVESGGGLVQAGGSLRLSCAASGRTFVPYVMGWYRQAPGKERELVASITSGGSTYYADSVKGRFTISRDNAKNTVYLQMNSLNPEDTAVYYCATRQSAERWGYYYWGQGTQVTVSS

Response:
low polyreactivity
low polyreactivity
low polyreactivity

Answer for every listed entry: what is its polyreactivity (PSR sort gate)? The entries follow.
1. QVQLVESGGGLVQAGGSLRLSCAASGRTFTVYAMGWYRQAPGKERELVAAIRRRGGSTYYADSVKGRFTISRDNAKNTVYLQMNSLKPEDTAVYYCAADNWYKKQKRPSAYDYWGQGTQVTVSS
2. QVQLVESGGGLVQAGGTLRLSCAASGSIFAVNAMGWYRQAPGKERELVAAISKRGGSTYYADSVKGRFTISRDNAKNTVYLQMNSLKPEDTAVYYCAARILVTYHRDYYYWGLGTQVTVSS
3. QVQLVESGGGLVQAGGSLRLSCAASGYTFYWNVMGWYRQAPGKERELVAVIDWSGGSTHYADSVKGRFTISRDNAKNTVYLQMNSLKPEDTAVYYCAAVDIRLEWDYWFQPTYDYWGQGTQVTVSS
4. QVQLVESGGGLVQAGGSLRLSCAASGIISRSYTMGWYRQAPGKERELVAVISSSGGSTYYADSVKGRFTISRDNAKNTVYLQMNSLKPEDTAVYYCAARPVTRFQGSDYWGQGTQVTVSS

Response:
1: high polyreactivity; 2: high polyreactivity; 3: low polyreactivity; 4: high polyreactivity

Would you mind giving polyreactivity (PSR sort gate) for every sequence in the list below?
1. QVQLVESGGGLVQAGGSLRLSCAASGIIFTYAIGWYRQAPGKERELVAAIDWRGGRTYYADSVKGRFTISRDNAKNTVYLHMNSLKREDTAVYYCGARLGGGTYYWGQGTQVTVSS
2. QVQLVESGGGLVQAGGSLRLSCAASGSTFGFYAMGWFRQAPGKERELVAAISSSGSTYYADSVKGRFTISRDNAKNTVYVQINRLKPEDTAVYYCYADYWRYISSYDYWGQGTQVTVSS
3. QVQLVESGGGLVQAGGSLRLSCAASGRIFPTYAMGWYRQAPGKERELVASITSGVDTYYADSVKGRFTISRDNAKNTVYLQMNSLKPEDTAVYYCAARFFVWWKYDYWGQGTQVTVSS
4. QVQLVESGGGKVQAGGSLRLSCASSGFTYDSNAMGSYRQAPGKERELVAAISTGGSTYYADSVKGPFTISRDNANITVYLQMYSLKPEDTAVYYCARDPPYPDTWYGYWGQGTQVTVSS
5. QVQLVESGGGLVQAGGSLRLSCAASGSTFNRYAMGWYIQAPGKERELVAAITRSGTSTYYADSVKGRFTISRDNAKNTVYLQMNSLKPEDTAVYYCAAVRYAVHFSYDYWGQGTQVTVSS

Response:
["high polyreactivity", "low polyreactivity", "low polyreactivity", "low polyreactivity", "high polyreactivity"]
